molecular target: UniProt P17931
pIC50: −log10 of the molar value.
Label class 1 when pIC50 >= 7; otherwise class 0.

CO[C@@H]1[C@@H](n2cc(-c3cc(F)c(F)c(F)c3)nn2)[C@@H](O)[C@@H](CO)O[C@@H]1Cc1cc(C2CCNC(=O)CC2)no1 (stereo partly drawn) [Ex 1.337] ... class 1

Could you please find out whether CO[C@@H]1[C@@H](n2cc(-c3cc(F)c(Cl)c(F)c3)nn2)[C@@H](O)[C@@H](CO)O[C@@H]1Cc1cc(C(C)(C)C)on1 [Ex 1.194] has pIC50 that meets 7 or exceeds it? class 0

---

target: human Gal-3 (hGal-3) (Homo sapiens (Human), UniProt P17931)
Sequence (P17931 whole entry): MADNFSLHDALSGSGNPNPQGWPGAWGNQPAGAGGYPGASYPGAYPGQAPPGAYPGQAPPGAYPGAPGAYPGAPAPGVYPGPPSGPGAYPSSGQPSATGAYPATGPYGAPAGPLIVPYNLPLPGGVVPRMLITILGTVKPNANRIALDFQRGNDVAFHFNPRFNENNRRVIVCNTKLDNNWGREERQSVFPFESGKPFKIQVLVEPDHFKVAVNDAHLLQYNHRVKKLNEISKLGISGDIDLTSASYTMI
Each record is given t if its reported IC50 is strictly below 200 nM. Records at or above 200 nM are given f.

Take a look at these entries with their results.
CC(C)(CO)c1cc(C[C@H]2O[C@H](CO)[C@H](O)[C@H](n3cc(-c4ccc(F)c(F)c4F)nn3)[C@H]2OCC(=O)O)on1 ... t
CO[C@@H]1[C@@H](n2cc(-c3cc(F)c(F)c(F)c3)nn2)[C@@H](O)[C@@H](CO)O[C@@H]1Cc1cc(C2CCN(C(C)=O)C2)on1 (mixture of isomers) ... f

Item CO[C@@H]1[C@@H](n2cc(-c3cc(F)c(F)c(F)c3)nn2)[C@@H](O)[C@@H](CO)O[C@@H]1C[C@@H]1CC(C2CCCCC2)=NO1 : IC50 beneath 200 nM, strictly? f

Please check: IC50 for CO[C@@H]1[C@@H](n2cc(-c3cc(F)c(F)c(F)c3)nn2)[C@@H](O)[C@@H](CO)O[C@@H]1CC1CC(C2CCCCC2)=NO1 (stereo partly drawn) , strictly under 200 nM or not? f

Dear colleague, could you confirm whether IC50 of CC(C)O[C@@H]1[C@@H](n2cc(-c3cc(F)c(F)c(F)c3)nn2)[C@@H](O)[C@@H](CO)O[C@@H]1Cc1cc(C2CCN(C(=O)OC(C)(C)C)CC2)on1 falls below 200 nM? Thanks. f

Problem: For the compound OC[C@H]1O[C@H](CC2=NOC(Cc3ccccc3)C2)[C@H](O)[C@@H](n2cc(-c3cc(F)c(F)c(F)c3)nn2)[C@H]1O (stereo partly drawn) , is IC50 under 200 nM? f

---

biological target: human Gal-3 (hGal-3) (Homo sapiens (Human), UniProt P17931)
measured-endpoint: IC50 (nM)
// units = nM; emit number, no label

Cc1c(F)cccc1-c1cn([C@H]2[C@@H](O)[C@@H](CO)O[C@H](CC3CC(C4CCN(C(=O)OC(C)(C)C)CC4)=NO3)[C@@H]2O)nn1 (stereo partly drawn) ... 1000
CO[C@@H]1[C@@H](n2cc(-c3cc(F)c(F)c(Cl)c3)nn2)[C@@H](O)[C@@H](CO)O[C@@H]1Cc1cc(C2CCCCC2)on1 ... 420
COc1ccc(-c2cn([C@H]3[C@@H](O)[C@@H](CO)O[C@H](CC4CC(C5CCN(C(=O)OC(C)(C)C)CC5)=NO4)[C@@H]3OC)nn2)c(F)c1F (stereo partly drawn) ... 77

IC50 measured on CCC(O)(CC)c1cc(C[C@H]2O[C@H](CO)[C@H](O)[C@H](n3cc(-c4ccc(C)c(F)c4F)nn3)[C@H]2OC)no1 = 620

Entry CO[C@@H]1[C@@H](n2cc(-c3ccc(C)c(F)c3F)nn2)[C@@H](O)[C@@H](CO)O[C@@H]1Cc1cc(C2(O)CCCCC2)on1 ; IC50 = 45

Entry CO[C@@H]1[C@@H](n2cc(-c3ccc(Cl)c(F)c3F)nn2)[C@@H](O)[C@@H](CO)O[C@@H]1Cc1cc(-c2ccc(F)c(F)c2F)on1 — recorded IC50 = 910
